# Experiment description: self-splicing fitness, log relative to wild type (ln ratio); higher = more splicing; Tetrahymena group I intron in knt gene, E. coli kanamycin selection, DiMSum; sequences stand for … in CUCUCU…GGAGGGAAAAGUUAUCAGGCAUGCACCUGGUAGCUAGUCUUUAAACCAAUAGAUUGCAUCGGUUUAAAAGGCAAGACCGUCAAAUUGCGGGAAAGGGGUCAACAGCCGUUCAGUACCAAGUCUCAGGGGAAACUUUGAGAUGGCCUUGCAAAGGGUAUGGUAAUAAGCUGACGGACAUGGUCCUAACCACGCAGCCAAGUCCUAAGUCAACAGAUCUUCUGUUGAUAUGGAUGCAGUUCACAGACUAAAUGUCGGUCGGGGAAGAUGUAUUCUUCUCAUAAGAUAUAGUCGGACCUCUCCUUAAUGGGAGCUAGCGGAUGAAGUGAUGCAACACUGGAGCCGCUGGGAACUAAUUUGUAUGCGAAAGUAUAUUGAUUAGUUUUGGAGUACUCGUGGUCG;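 note: selection with 25 µg/mL kanamycin versus none on LB agar overnight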
# Measurement conditions: 30 °C
Measure: self-splicing fitness (ln)

| Seq text | Numeric value |
| --- | --- |
| UAUUAGCAAUAUUACGAGCA | -0.606 |
| CCAUAGCAAUAUUACGGUCG | -0.61 |
| CGGAAGCAAUAUUACGUGAC | -1.6 |
| CAGAAGCAAUAUUACGGACA | -1.93 |
| CAUUAGCAAUAUUACGGCGU | -2.25 |
| GGUUAGCAAUAUUACGACGU | 0.152 |
| CGCAAGCAAUAUUACGUACG | -2.03 |
| AUCCAGCAAUAUUACGAUAC | -2.91 |

* * *

# Experiment description: self-splicing fitness, log relative to wild type (ln ratio); higher = more splicing; Tetrahymena group I intron in knt gene, E. coli kanamycin selection, DiMSum; sequences stand for … in CUCUCU…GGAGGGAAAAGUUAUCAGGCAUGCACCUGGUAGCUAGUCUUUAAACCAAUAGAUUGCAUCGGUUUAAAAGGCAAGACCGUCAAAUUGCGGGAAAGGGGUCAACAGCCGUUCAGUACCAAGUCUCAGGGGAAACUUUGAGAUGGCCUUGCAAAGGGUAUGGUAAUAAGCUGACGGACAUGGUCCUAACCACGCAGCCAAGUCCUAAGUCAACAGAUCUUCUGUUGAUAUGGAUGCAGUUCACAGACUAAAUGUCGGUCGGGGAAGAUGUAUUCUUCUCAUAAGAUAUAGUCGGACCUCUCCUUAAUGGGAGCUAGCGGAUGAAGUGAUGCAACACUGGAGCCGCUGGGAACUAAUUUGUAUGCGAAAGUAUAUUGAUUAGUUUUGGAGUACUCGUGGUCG
# Measurement conditions: 37 °C
Response key: satisfied means self-splicing fitness (ln) >= -2; not satisfied means self-splicing fitness (ln) < -2.

| Seq text | Assigned label |
| --- | --- |
| CCUGAGCAAUAUUACGUCCG | satisfied |
| CUUGAGCAAUAUUACGCACU | satisfied |
| GACUAGCAAUAUUACGCUAA | satisfied |
| GUGAAGCAAUAUUACGAGUC | satisfied |
| ACGCAGCAAUAUUACGCCGU | not satisfied |
| CGUUAGCAAUAUUACGCUUC | not satisfied |
| UAACAGCAAUAUUACGUUAG | satisfied |
| AACAAGCAAUAUUACGGUCG | satisfied |
| AAAAAGCAAUAUUACGGGUC | not satisfied |
| GACUAGCAAUAUUACGAUUG | not satisfied |
| ACGCAGCAAUAUUACGCAAU | satisfied |
| ACCGAGCAAUAUUACGAACA | satisfied |
| CGAAAGCAAUAUUACGUAUG | satisfied |
| GUCUAGCAAUAUUACGUGAG | satisfied |
| CCGAAGCAAUAUUACGAUUU | not satisfied |
